molecular target: delF508-CFTR (Homo sapiens, UniProt P13569, DEL508-508); construct: endogenous in cells; host or cells: CFBE41o- human CF bronchial epithelial cells (delF508 homozygous); experiment: SPQ halide-sensitive fluorescence dye assay for rescue of halide efflux (8-point concentration-response); assay type: cell-based; conditions: CFBE41o- cells, 48 h
Sequence (P13569 with tags, fused parts or gaps DEL508-508): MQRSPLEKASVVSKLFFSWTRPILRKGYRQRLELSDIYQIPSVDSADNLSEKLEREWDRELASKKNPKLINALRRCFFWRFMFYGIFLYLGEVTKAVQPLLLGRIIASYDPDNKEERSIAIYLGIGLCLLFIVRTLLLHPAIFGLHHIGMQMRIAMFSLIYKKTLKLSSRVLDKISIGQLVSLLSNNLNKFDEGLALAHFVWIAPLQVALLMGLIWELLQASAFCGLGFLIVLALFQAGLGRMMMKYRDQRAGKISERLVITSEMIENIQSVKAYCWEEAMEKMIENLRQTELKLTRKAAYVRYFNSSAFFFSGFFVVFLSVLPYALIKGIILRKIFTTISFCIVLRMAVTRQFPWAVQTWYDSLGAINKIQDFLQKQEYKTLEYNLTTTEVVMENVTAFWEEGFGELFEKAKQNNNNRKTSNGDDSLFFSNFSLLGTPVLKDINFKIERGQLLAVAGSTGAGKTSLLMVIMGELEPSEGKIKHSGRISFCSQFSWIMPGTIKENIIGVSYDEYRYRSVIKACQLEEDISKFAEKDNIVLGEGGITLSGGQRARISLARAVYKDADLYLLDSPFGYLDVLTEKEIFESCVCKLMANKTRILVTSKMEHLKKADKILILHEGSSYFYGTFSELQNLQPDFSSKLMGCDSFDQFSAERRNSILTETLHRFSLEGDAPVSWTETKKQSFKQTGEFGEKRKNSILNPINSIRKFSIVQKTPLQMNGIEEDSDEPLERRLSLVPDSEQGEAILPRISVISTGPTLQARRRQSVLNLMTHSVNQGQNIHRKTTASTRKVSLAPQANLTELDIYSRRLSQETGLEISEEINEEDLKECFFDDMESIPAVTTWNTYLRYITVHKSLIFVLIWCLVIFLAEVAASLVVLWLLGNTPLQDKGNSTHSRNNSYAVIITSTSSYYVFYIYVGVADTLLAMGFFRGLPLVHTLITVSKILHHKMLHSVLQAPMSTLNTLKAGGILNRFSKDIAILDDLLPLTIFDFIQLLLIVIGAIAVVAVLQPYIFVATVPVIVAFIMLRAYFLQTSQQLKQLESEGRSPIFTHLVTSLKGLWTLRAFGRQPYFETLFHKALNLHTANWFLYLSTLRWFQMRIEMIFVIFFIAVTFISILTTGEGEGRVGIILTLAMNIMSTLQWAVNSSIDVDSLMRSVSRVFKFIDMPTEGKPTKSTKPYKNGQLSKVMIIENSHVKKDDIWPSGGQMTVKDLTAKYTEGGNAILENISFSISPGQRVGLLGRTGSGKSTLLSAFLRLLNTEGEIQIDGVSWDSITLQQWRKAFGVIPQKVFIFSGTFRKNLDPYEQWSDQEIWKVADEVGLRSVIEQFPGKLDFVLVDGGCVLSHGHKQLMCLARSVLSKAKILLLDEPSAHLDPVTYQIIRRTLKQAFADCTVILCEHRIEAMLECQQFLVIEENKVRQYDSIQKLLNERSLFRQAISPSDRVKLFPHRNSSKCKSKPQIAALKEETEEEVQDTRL
ΔSPQ (difference between maximum and minimum SPQ values) values by entry
MEASURED_ATTRIBUTE: ΔSPQ (difference between maximum and minimum SPQ values) (RFU)

MOLECULE	RESULT_VALUE
CCn1c(=O)c2c(nc3n(C(C)c4ccccc4)c(C)cn23)n(C)c1=O (centres unmarked)	18574
CCn1c(N2CCN(Cc3ccccc3C)CC2)nc2c1c(=O)[nH]c(=O)n2C	7195
CC1=NNc2nc3c(c(=O)n(CCCc4ccccc4)c(=O)n3C)n2C1	3796
C=CCN1N=C(C)C(C)n2c1nc1c2c(=O)n(CCC)c(=O)n1C (centres unmarked)	4548
CCCn1c(=O)c2c(nc3n(-c4ccccc4OC)c(C)c(C)n23)n(C)c1=O	3733
C/C=C/Cn1c(=O)c2c(nc3n(CCCC)c(C)cn23)n(C)c1=O	8829
CCCn1c(=O)c2c(nc3n(Cc4ccco4)c(C)c(C)n23)n(C)c1=O	2989
Cc1c(C)n2c3c(=O)n(CC(C)C)c(=O)n(C)c3nc2n1Cc1ccco1	9148
Cc1cc(C)cc(-n2c(C)cn3c4c(=O)n(C)c(=O)n(C)c4nc23)c1	6131
C/C=C/CN1N=C(C)Cn2c1nc1c2c(=O)n(CCC)c(=O)n1C	4351
C/C=C/Cn1c(=O)c2c(nc3n(C(C)CC)c(C)c(C)n23)n(C)c1=O (centres unmarked)	2183
CCCn1c(=O)c2c(nc3n2CC(C)=NN3CCC(C)C)n(C)c1=O	9555
C=CCn1c(=O)c2c(nc3n(C(C)CC)c(C)c(C)n23)n(C)c1=O (centres unmarked)	11108
C=CCn1c(=O)c2c(nc3n(-c4cccc(C)c4)c(C)c(C)n23)n(C)c1=O	5708
C=CCn1c(C)cn2c3c(=O)n(Cc4ccc(F)cc4)c(=O)n(C)c3nc12	8993
C=CCn1c(=O)c2c(nc3n2CC(C)=NN3Cc2ccccc2)n(C)c1=O	3979
CCn1c(=O)c2c(nc3n(Cc4ccco4)c(C)c(C)n23)n(C)c1=O	3375
CC1CC(=O)c2cnc3c(c2C1)c(=O)[nH]c(=O)n3Cc1ccco1 (centres unmarked)	2459
Cc1ccc(C)c(Cn2c(=O)c3c(nc4[nH]c(C)c(C)n43)n(C)c2=O)c1	3705
COc1ccccc1CN1CCN(c2nc3c(=O)n(C)c(=O)n(C)c3[nH]2)CC1	2800
Cc1c(C)n2c3c(=O)n(CCCO)c(=O)n(C)c3nc2n1CCc1ccccc1	5300
Cc1c(C)n2c3c(=O)n(C/C=C/c4ccccc4)c(=O)n(C)c3nc2n1CCCO	3639
C/C=C/CN1N=C(C)Cn2c1nc1c2c(=O)n(CC(C)C)c(=O)n1C	5767
CCCn1c(=O)c2c(nc3n2C(C)C(C)=NN3CC(C)C)n(C)c1=O (centres unmarked)	7753
CCCN1N=C(C)Cn2c1nc1c2c(=O)n(CC(C)C)c(=O)n1C	12233
C=C(C)Cn1c(=O)c2c(nc3oc(C(C)(C)C)cn32)n(C)c1=O	3625
CCCCn1c(=O)c2c(nc3n(CCN4CCOCC4)c(C)c(C)n23)n(C)c1=O	9639
CCn1c(=O)c2c(nc3n(-c4ccccc4)c(C)c(C)n23)n(C)c1=O	4005
CCCCn1c(C)cn2c3c(=O)n(CCC)c(=O)n(C)c3nc12	3102
CC(C)CCn1c(=O)c2c(nc3n2CCN3Cc2ccco2)n(C)c1=O	4315
CCCCn1c(C)cn2c3c(=O)n(CC(=O)OC)c(=O)n(C)c3nc12	5027
C=CCN1N=C(C)Cn2c1nc1c2c(=O)n(CC(C)C)c(=O)n1C	12223
CCCn1c(=O)[nH]c(=O)c2c3c(cnc21)C(=O)CC(c1cccs1)C3 (centres unmarked)	2777
CCn1c(=O)c2c(nc3n(-c4ccc(F)cc4)c(C)c(C)n23)n(C)c1=O	5779
CCCn1c(=O)c2c(nc3n(CC(C)C)c(C)c(C)n23)n(C)c1=O	300
